assay: Cyto-toxicity (MTT assay)
Type: cell-based
quantity-measured: viability at 4 days, 0.01 µM
The reply must contain the numeric value and, after it, the unit.

As a guide, the following entries are already answered.
CC(C)C1=C2[C@H]3CC[C@@H]4[C@@]5(C)CC[C@H](OC(=O)[C@H]6C[C@@H](C(=O)O)C6(C)C)C(C)(C)[C@@H]5CC[C@@]4(C)[C@]3(C)CC[C@@]2(NC(=O)C(C)(C)NC(=O)CN2CCS(=O)(=O)CC2)CC1=O ... 26%
CC(C)C1=C2[C@H]3CC[C@@H]4[C@@]5(C)CC[C@H](OC(=O)[C@H]6C[C@@H](C(=O)O)C6(C)C)C(C)(C)[C@@H]5CC[C@@]4(C)[C@]3(C)CC[C@@]2(NC(=O)C(C)(C)NC(=O)[C@@H]2CCCN2C(=O)OC(C)(C)C)CC1=O ... 28%
Cc1ccc(C(=O)NC2(C(=O)N[C@@]34CC[C@]5(C)[C@H](CC[C@@H]6[C@@]7(C)CC[C@H](OC(=O)[C@H]8C[C@@H](C(=O)O)C8(C)C)C(C)(C)[C@@H]7CC[C@]65C)C3=C(C(C)C)C(=O)C4)CC2)cc1 ... 26%

Please examine the following record next.
Q: Which viability at 4 days, 0.01 µM value belongs to "CC(C)C1=C2[C@H]3CC[C@@H]4[C@@]5(C)CC[C@H](OC(=O)[C@H]6C[C@@H](C(=O)O)C6(C)C)C(C)(C)[C@@H]5CC[C@@]4(C)[C@]3(C)CC[C@@]2(NC(=O)C(C)(C)NC(=O)c2ccoc2)CC1=O" ?
Result: 69%
